For each entry below, report its normalized growth value.
Experiment: chemical genetic growth profiling, strain panel (AID 1159580);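 further: tested at 20 µM; growth read once vehicle control cultures reached saturation at 30 °C; 1 = growth at the plate median or of vehicle wells; lower values mean less growth of the strain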
Settings: S. cerevisiae deletion strains, growth OD, locus YLR113W, strain HOG1, active compounds read low
Out of some 5,500 compounds screened, about 2,000 (36%) were called active. Inconclusive results (about 18%) are left out. Some of the results follow.

# count of solved cases: 4
O=C(O)c1cc(=O)c2ccccc2[nH]1 ... 1.01 (inactive)
CC(=O)O[C@H]1CC2CCC3C(CC[C@@]4(C)C3C[C@H]([N+]3(C)CCCCC3)[C@@H]4OC(C)=O)[C@@]2(C)C[C@@H]1N1CCCCC1 (some centres not stated) ... 0.99 (inactive)
CC(=O)c1ccc[nH]1 ... 1 (inactive)
O=C(Nc1ccc(F)cc1F)c1cc(Cl)ccc1O ... 0.98 (inactive)

Please give normalized growth for each item listed below.
1. CCCC(=O)Nc1ccc(OCC(O)CNC(C)C)c(C(C)=O)c1 (configuration not stated)
2. O=C(c1ccccc1)c1ccc2n1CCC2C(=O)O (configuration not stated)
3. C[N+]12CCC(CC1)C(OC(=O)C(O)(c1ccccc1)c1ccccc1)C2 (configuration not stated)

stdout:
0.999 (inactive)
1.01 (inactive)
0.975 (inactive)

----------
Experiment: chemical genetic growth profiling, strain panel (AID 1159580);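 further: tested at 20 µM; growth read once vehicle control cultures reached saturation at 30 °C; 1 = growth at the plate median or of vehicle wells; lower values mean less growth of the strain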
Settings: S. cerevisiae deletion strains, growth OD, locus YCL016C, strain dcc1
Among all 5,500 compounds or so, about 2,000 (36%) were called active. About 18% were inconclusive and are not listed. Rule as the data show it: active = normalized growth mostly below about 0.91 (no sharp cut-off); inconclusive = no clear call, values can overlap the other calls; inactive = mostly above about 0.92. The list shows a part of the results.
The reply should name one outcome from label 1 for active, label 0 for inactive

Sample answers from the record:
O=C1NS(=O)(=O)c2ccccc21 ... label 0
CC(=O)OC1CCC2(O)CC1(C)CCC1C2CC1(C)C (stereo not given) ... label 0
NC(Cc1ccc(Cl)cc1)C(=O)O (stereo not given) ... label 0
CCCCN(CC)c1c([N+](=O)[O-])cc(C(F)(F)F)cc1[N+](=O)[O-] ... label 0
C[N+]12CCC(CC1)C(OC(=O)C(O)(c1ccccc1)c1ccccc1)C2 (stereo not given) ... label 0
O=c1c(O)c(-c2ccccc2)oc2ccccc12 ... label 1
O=c1c(O)cccc2cc(O)c(O)c(O)c12 ... label 1
NC(=NCCCCCCN=C(N)N=C(N)Nc1ccc(Cl)cc1)N=C(N)Nc1ccc(Cl)cc1 ... label 1
O=C(O)CC[N+](=O)[O-] ... label 0
O=c1c(O)c(-c2ccccc2)oc2ccc3occc3c12 ... label 1

stdin: Would you mind telling me which call this test gave `CC(=O)c1c(O)cc(O)cc1O` ?
stdout: label 0

stdin: Give the logged outcome of this assay for the following molecule: CCC1(C2=NCCN2)Cc2ccccc2O1 (stereo not given)
stdout: label 0

stdin: Could you check what this test reported for C=C(C)C1Cc2c(ccc3c(=O)c4c(oc23)COc2cc(OC)c(OC)cc2-4)O1 (stereo not given) ?
stdout: label 0

stdin: Could you please tell me the result logged for CC(=O)OC1CCC23CC1(C)CCC2C(C)(C)CC3OC(C)=O (stereo not given) in this assay?
stdout: label 0

stdin: Kindly provide the recorded test outcome for the following molecule: COC(=O)CC1C(C)(C(=O)c2ccoc2)CC2OCC34C(CC(=O)OC)C5(C)CC36OC3(C)OC1(C(OC(C)=O)C6(OC(C)=O)C5OC(=O)C(C)C)C24O3 (stereo not given)
stdout: label 0

stdin: Entry `CCCN(CCC)c1c([N+](=O)[O-])cc(C(F)(F)F)cc1[N+](=O)[O-]` : call = ?
stdout: label 0

stdin: Status in this test for `COc1cc(Cc2cnc(N)nc2N)cc(OC)c1OC` ?
stdout: label 0

stdin: For `O=c1c(O)c(-c2ccc(O)cc2)oc2ccccc12` , which call appears in the assay record?
stdout: label 1

stdin: What outcome does the record of this test show for `O=c1c(O)c(-c2ccccc2)oc2cc(O)ccc12` ?
stdout: label 1

stdin: I would be grateful if you could indicate the recorded call for `CC(C)N1C(=O)c2ccccc2NS1(=O)=O` .
stdout: label 0
